Molecular target: uterine OT receptors (Rattus norvegicus)
Construct: crude membrane preparation of uteri; from tissue; host or cells: uterus of DES-treated rats, crude membranes
Sequence (P70536 1-388): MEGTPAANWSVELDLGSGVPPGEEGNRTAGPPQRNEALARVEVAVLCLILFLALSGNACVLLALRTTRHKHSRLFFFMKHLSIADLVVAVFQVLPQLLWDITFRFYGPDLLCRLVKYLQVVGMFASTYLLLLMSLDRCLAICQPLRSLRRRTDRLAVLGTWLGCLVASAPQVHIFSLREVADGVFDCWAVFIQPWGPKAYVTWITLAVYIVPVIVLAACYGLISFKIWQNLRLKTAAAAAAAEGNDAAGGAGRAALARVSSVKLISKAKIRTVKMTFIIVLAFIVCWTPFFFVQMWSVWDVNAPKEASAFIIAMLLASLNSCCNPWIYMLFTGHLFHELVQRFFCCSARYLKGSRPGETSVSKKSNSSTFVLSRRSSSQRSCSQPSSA
Experiment: Radioligand binding: competition of [^3 H]oxytocin binding to rat uterine membranes
Settings: 1 nM [^3 H]OT, rat uterus membranes, 60 minutes, 22° C., pH 7.4; read-out: IC50
measurement-label: IC50 (nM)

{"compound": "COC(=O)C1CC2CCC1(CS(=O)(=O)N1CCN(c3ccccc3C)CC1)C2(C)C (stereo not shown)", "target-of-assay": "uterine OT receptors (Rattus norvegicus)", "measurement-label": "IC50", "display-unit": "nM", "recorded-number": 260}
{"compound": "Cc1ccccc1N1CCN(C(=O)C2C(=NO)C3(C)CCC2C3(C)C)CC1 (stereo not shown)", "target-of-assay": "uterine OT receptors (Rattus norvegicus)", "measurement-label": "IC50", "display-unit": "nM", "recorded-number": 82}
{"compound": "Cc1ccccc1N1CCN(C(=O)C2C3CCC(C)(C2NC(=O)C(CCS(C)(=O)=O)NC(=O)OC(C)(C)C)C3(C)C)CC1 (stereo not shown) [Example 9]", "target-of-assay": "uterine OT receptors (Rattus norvegicus)", "measurement-label": "IC50", "display-unit": "nM", "recorded-number": 6.5}
{"compound": "Cc1ccccc1N1CCN(S(=O)(=O)CC23CCC(CC2O)C3(C)C)C(C)C1 (stereo not shown)", "target-of-assay": "uterine OT receptors (Rattus norvegicus)", "measurement-label": "IC50", "display-unit": "nM", "recorded-number": 460}
{"compound": "Cc1ccccc1N1CCN(S(=O)(=O)CC23CCC(CC2(O)C(C)CNC(=O)C2CCNCC2)C3(C)C)CC1 (stereo not shown)", "target-of-assay": "uterine OT receptors (Rattus norvegicus)", "measurement-label": "IC50", "display-unit": "nM", "recorded-number": 30}

A: Cc1ccccc1N1CCN(S(=O)(=O)CC23CCC(CC2N(C)C(=O)[C@@H](N)CCS(C)(=O)=O)C3(C)C)CC1 (stereo partly shown)
B: CC(=O)NC1C(C(=O)N2CCN(c3ccccc3C)CC2)C2CCC1(C)C2(C)C (stereo not shown)
q: Given the two records A and B , choose the one whose IC50 value is lower. Indicate your choice by writing its label.
a: A

A: Cc1ccccc1N1CCN(C(=O)C2C3CCC(C)(C2NC(=O)C(C)(C)O)C3(C)C)CC1 (stereo not shown)
B: Cc1ccccc1N1CCN(C(=O)C2C3CCC(C)(C2NC(=O)C(O)CO)C3(C)C)CC1 (stereo not shown)
C: Cc1ccccc1N1CCN(S(=O)(=O)C[C@]23CC[C@H](C[C@]2(O)C(C)CNC(=O)[C@@H]2CCCN2)C3(C)C)CC1 (stereo partly shown)
q: Reorder: IC50, max to min. Enter labels, ranked according to the request.
a: B, C, A
(B: 120 nM, C: 34 nM, A: 16 nM)

###

Target: uterine OT receptors (Rattus norvegicus, UniProt P70536)
Construct: crude membrane preparation of uteri; from tissue; host or cells: uterus of DES-treated rats, crude membranes
Assay: Radioligand binding: competition of [^3 H]oxytocin binding to rat uterine membranes
Conditions: 1 nM [^3 H]OT, rat uterus membranes, 60 minutes, 22° C., pH 7.4; read-out: IC50
pIC50: −log10 of the molar value.
measurement-label: pIC50

Consider the reported pIC50 for these compounds:
{"compound": "Cc1ccccc1N1CCN(S(=O)(=O)CC23CCC(CC2(O)C(C)CNC(=O)[C@@H]2CCCN2CC(=O)O)C3(C)C)CC1 (stereo partly shown) [Example 89]", "pIC50": 7.85}
{"compound": "Cc1ccccc1N1CCN(S(=O)(=O)CC23CCC(C=C2C(=O)NCCc2c[nH]cn2)C3(C)C)CC1 (stereo not shown) [Example 58]", "pIC50": 6.92}
{"compound": "Cc1ccccc1N1CCN(C(=O)C2C3CCC(C)(C2O)C3(C)C)CC1 (stereo not shown) [Example 2]", "pIC50": 6.10}

P: Cc1ccccc1N1CCN(S(=O)(=O)CC23CCC(CC2NC(=O)Cc2c[nH]cn2)C3(C)C)CC1 (stereo not shown) [Example 79]
Q: Cc1ccccc1N1CCN(S(=O)(=O)C[C@]23CC[C@H](C[C@]2(O)C(C)CNC(=O)Cc2c[nH]cn2)C3(C)C)CC1 (stereo partly shown) [Example 43]
q: Between item P and item Q , which reported pIC50 is smaller? State the label of the item chosen.
a: P
(P: 7.59, Q: 8.10)

###

Target: uterine OT receptors (Rattus norvegicus)
Construct: crude membrane preparation of uteri; from tissue; host or cells: uterus of DES-treated rats, crude membranes
Test: Radioligand binding: competition of [^3 H]oxytocin binding to rat uterine membranes
Settings: 1 nM [^3 H]OT, rat uterus membranes, 60 minutes, 22° C., pH 7.4; read-out: IC50
measurement-label: IC50 (nM)

Example entries begin here.
{"compound": "COC(=O)CCN(CCC(=O)OC)CC(C)[C@@]1(O)C[C@H]2CC[C@]1(CS(=O)(=O)N1CCN(c3ccccc3C)CC1)C2(C)C (stereo partly shown) [Example 47]", "recorded-number": 54}
{"compound": "Cc1ccccc1N1CCN(S(=O)(=O)CC23CCC(CC2(O)C(C)CNC(=O)C2CCCNC2)C3(C)C)CC1 (stereo not shown) [Example 83]", "recorded-number": 30}
{"compound": "Cc1ccccc1N1CCN(S(=O)(=O)C[C@]23CC[C@H](CC2=O)C3(C)C)CC1 [Example 37]", "recorded-number": 1000}
{"compound": "Cc1ccccc1N1CCN(C(=O)C2C3CCC(C)(C2NC(=O)[C@@H]2CCCN2)C3(C)C)CC1 (stereo partly shown) [Example 15]", "recorded-number": 60}
{"compound": "Cc1ccccc1N1CCN(C(=O)C2C3CCC(C)(C2NC(=O)C(CCS(C)(=O)=O)NC(=O)OC(C)(C)C)C3(C)C)CC1 (stereo not shown) [Example 11]", "recorded-number": 1100}

1: Cc1ccccc1N1CCN(S(=O)(=O)CC23CCC(CC2N(C)C(=O)OCc2ccccc2)C3(C)C)CC1 (stereo not shown) [Example 76]
2: Cc1ccccc1N1CCN(S(=O)(=O)C[C@]23CC[C@H](C[C@@H]2NC(=O)C(C)c2c[nH]cn2)C3(C)C)CC1 (stereo partly shown) [Example 80]
q: Name the one with the greater IC50 value, either 1 or 2 as given. Which one? Tell me its label.
a: 2

###

Molecular target: uterine OT receptors (Rattus norvegicus, UniProt P70536)
Construct: crude membrane preparation of uteri; from tissue; host or cells: uterus of DES-treated rats, crude membranes
Sequence (P70536 1-388): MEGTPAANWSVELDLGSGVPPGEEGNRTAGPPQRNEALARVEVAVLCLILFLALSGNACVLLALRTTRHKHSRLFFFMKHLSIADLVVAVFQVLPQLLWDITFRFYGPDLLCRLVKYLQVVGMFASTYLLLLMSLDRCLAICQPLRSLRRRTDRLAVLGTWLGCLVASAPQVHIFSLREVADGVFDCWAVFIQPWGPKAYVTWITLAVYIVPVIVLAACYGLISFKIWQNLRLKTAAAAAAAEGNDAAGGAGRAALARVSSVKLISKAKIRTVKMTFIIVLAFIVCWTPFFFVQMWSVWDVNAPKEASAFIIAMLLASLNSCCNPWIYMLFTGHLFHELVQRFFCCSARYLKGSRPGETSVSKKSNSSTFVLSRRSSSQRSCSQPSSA
Experiment: Radioligand binding: competition of [^3 H]oxytocin binding to rat uterine membranes
Conditions: read-out: % inhibition at 1000 nM
measurement-label: inhibition at 1 µM (%)

Previously resolved entries follow.
{"molecule": "Cc1ccccc1N1CCN(S(=O)(=O)CC23CCC(CC2NC(=O)OCc2ccccc2)C3(C)C)CC1 (stereo not shown) [Example 75]", "recorded-number": 35}
{"molecule": "Cc1ccccc1N1CCN(S(=O)(=O)CC23CCC(CC2NC(=O)[C@H](CCS(C)(=O)=O)N(C)C)C3(C)C)CC1 (stereo partly shown) [Example 74]", "recorded-number": 54}
{"molecule": "Cc1ccccc1N1CCN(C(=O)C2C3CCC(C)(C2NC(=O)C(N)CCS(C)(=O)=O)C3(C)C)CC1 (stereo not shown) [Example 10]", "recorded-number": 75}
{"molecule": "Cc1ccccc1N1CCN(S(=O)(=O)C[C@]23CC[C@H](C=C2C(=O)O)C3(C)C)CC1 [Example 57]", "recorded-number": 78}
{"molecule": "Cc1ccccc1N1CCN(S(=O)(=O)CC23CCC(CC2=O)C3(C)C)C(C)C1=O (stereo not shown) [Example 67]", "recorded-number": 37}

a: Cc1ccccc1N1CCN(C(=O)C2(CC#N)C(=O)C3(C)CCC2C3(C)C)CC1 (stereo not shown) [Example 5]
b: Cc1ccccc1N1CCN(S(=O)(=O)C[C@]23CC[C@H](CC2=CCNC(=O)Cc2c[nH]cn2)C3(C)C)CC1 [Example 53]
q: Lower value for measured inhibition at 1 µM? Options: a , b To answer, give the label that identifies your chosen option.
a: a
